Entries and their IC50
Molecular target: T1, soluble mouse BLyS (mouse, UniProt Q9WU72 127-309)
T1 construct: europium-labelled in DELFIA; also called mBLyS; mouse BAFF (BLyS)
Experiment: DELFIA competition, Eu-mBLyS binding to coated BR3
Experimental: After 5× washing with 200 ul/well of DELFIA 1× wash solution (PE, Cat #4010-0010), plates were blocked with 3% BSA purified from trace heavy metal amounts (PE, Cat #CR84-100) for 3 hours with shaking at room temperature. Plates were washed again five times at 200 μl/well with DELFIA wash solution. The final 3 wells across the plate served as controls (2 wells contained 2,000 pM mAbs for negative and background controls while the third contained no mAbs for positive control). […]

binder="8D12 IgG expressed in HEK293 cells (antibody, V domains shown, IgG from HEK293-FreeStyle cells; also called 8D12 (293)) VH: QVQLVQSGAEVKKPGASVKVSCKASGYTFTSYAMHWVRQAPGQRLEWMGWINAGNGNTKYSQKFQGRVTITRDTSASTAYMELSSLRSEDTAVYYCARAYYDILTGYSVYGMDVWGQGTTVTVSS VL: EIVLTQSPATLSLSPGERATLSCRANESVGNYLAWYQQKPGQAPRLLIYGASRRATGIPDRFSGSGSGTDFTLTISRLEPEDFAVYYCQQYGSSLLTFGGGTKVEIKR" reported_property=IC50 observed_measurement="> 2 nM"
binder="6C10 IgG1 F243A/V264A double mutein expressed in Pichia pastoris (antibody, V domains shown, IgG1 F243A/V264A (EU) double mutein, alpha-2,6-sialylated, from glycoengineered Pichia pastoris; also called 6C10-DM; 6C10-DM (Pichia)) VH: EVQLVQSGAEVKKPGASVKVSCKASGYTFTSYGISWVRQAPGQGLEWMGWISAYNGNTNYAQKLQGRVTMTTDTSTSTAYMELRSLRSDDTAVYYCARTYYDILTGYYYYYGMDVWGQGTTVTVSS VL: EIVLTQSPGTLSLSPGERAMLSCRASQSVGNYLAWYQQKPGQAPRLLIYDASNRATGIPARFSGSGSGTDFTLTINSLEPEDFAVYYCQQRSNWPLTFGGGTKVEIKR" reported_property=IC50 observed_measurement="> 2 nM"

--- query ---
Which IC50 reading was recorded for the binder 5B7 IgG1 F243A/V264A double mutein expressed in Pichia pastoris (antibody, V domains shown, IgG1 F243A/V264A (EU) double mutein, alpha-2,6-sialylated, from glycoengineered Pichia pastoris; also called 5B7-DM; 5B7-DM Pichia) VH: QVQLVQSGAEVKKPGASVKVSCKASGGTFSSYAISWVRQAPGQGLEWMGGIIPIFGTANYAQKFQGRVTITADKSTSTAYMELSSLRSEDTAVYYCARVDYDILTGYYMGYFDYWGQGTLVTVSS VL: DIVMTQSPATLSLSPGERATLSCRASQSVSSYLAWYQQKPGQAPRLLIYDASNRATGIPARFSGSGSGTDFTLTISSLEPEDFAVYYCQQRSNWPITFGQGTRLEIKR ?
0.094 nM
